assay: NCI Yeast Anticancer Drug Screen. Data for the cln2 rad14 strain (AID 165);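 further: 0% = growth equal to vehicle treated cultures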; settings: S. cerevisiae cln2 rad14 strain; at 50.0 µM unless noted
The panel holds about 79,000 compounds, 15% with a hit somewhere; the sample as a whole holds those more often. Activity calls are given as the source filed them. No stated cut-off is given here; in the data, active means growth inhibition above about 70%; inactive means the rest.
Your response should consist of one outcome taken from active, inactive

Lookup: Any idea what this test logged for O=CC(CO)C(C=O)n1ncc2ccccc21 (stereo unspecified) ?
Found: inactive

Lookup: Record lookup: outcome of this test for COc1ccc2cc3n(c(=O)c2c1OC)CCc1cc2c(cc1-3)OCO2 ?
Found: inactive

Lookup: Fill in: this test's call for CN(C)C(=S)Oc1c([N+](=O)[O-])cc([N+](=O)[O-])cc1C(C)(C)C is ___
Found: active

Lookup: Recorded test outcome, item CC(=O)c1cc(Cc2cc(C)cc(C)c2O)c(O)c(Cc2cc(C)cc(C)c2O)c1
Found: inactive

Lookup: Which result was noted for this molecule in the test: O=c1nc2sccn2c2ncccc12
Found: inactive

Lookup: Field: outcome | Entry: CCN(CC)C(=O)c1cc(OC)c(C(=O)N(CC)CC)cc1OC
Found: inactive

====

assay: NCI Yeast Anticancer Drug Screen. Data for the mlh1 rad18 strain (AID 175); settings: S. cerevisiae mlh1 rad18 strain growth inhibition, hits give high values; at 50.0 µM unless noted
The panel holds about 79,000 compounds, 15% with a hit somewhere; the sample as a whole holds those more often. Where a SMILES comes first, the peptide text is derived from it. [ ]: non-standard residue; d: D form. The star is where a group is joined. ξ: configuration not given here. Cbz = O=C(OCc1ccccc1)*; ξK = NCCCCC(N)C(=O)O
quantity_measured: growth inhibition (%)
Kindly answer with a numeric value in %, unit omitted.

Lookup: What value of growth inhibition has been recorded for this entry: COc1cc(Nc2nc3ccc(C(F)(F)F)cc3nc2C(=O)O)cc(OC)c1OC
Found: 10.3

Lookup: Need growth inhibition of COc1cc(CCC(NC(C)=O)c2cccc(O)c(=O)c2)cc(OC)c1OC (stereo not given) , thanks.
Found: 8.1

Lookup: Which growth inhibition value is on record for CC1(CO)C2CCC(CC2)C1CO (stereo not given) ?
Found: 2.5

Lookup: Requested field: growth inhibition. Item: C1=C(Nc2ccccc2)C(=Nc2ccccc2)C=C(Nc2ccccc2)C1=Nc1ccccc1
Found: 5.4

Lookup: Can you look up the measured growth inhibition of NCC(=O)NC(CCCCNC(=O)OCc1ccccc1)C(=O)O (stereo not given) (H-Gly-[ξK](Cbz)-OH) for me?
Found: -22.4

====

assay: NCI Yeast Anticancer Drug Screen. Data for the rad50 strain (AID 155);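 further: 0% = growth of vehicle-only cultures of the same strain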; settings: S. cerevisiae rad50 strain growth inhibition, hits give high values; at 50.0 µM unless noted
This is part of a sample that, as a whole, favours compounds with a hit. Of some 79,000 tested, about 15% had one in any assay.
quantity_measured: growth inhibition (%)
A number alone suffices; assume %.

Lookup: Bench note: what growth inhibition did COC(=O)/C(=C(\C)NC(C)=O)c1c(C(=O)OC)[nH]c2ccccc12 show?
Found: -6.85

Lookup: Which growth inhibition reading was recorded for the molecule CC(=O)CSc1c(-c2ccccc2)c(=O)n(-c2ccccc2)c(=S)n1-c1ccccc1 ?
Found: -3.8

Lookup: growth inhibition for C=C(Br)CN(C#N)CC(=C)Br ?
Found: -24.4

Lookup: I would be grateful if you could share the reported growth inhibition for CC1C(=O)C(c2cccs2)(C2CCCCC2)CC[N+]1(C)C (stereo not given) .
Found: 0

Lookup: Quick check: growth inhibition of O=C(Nc1noc(-c2ccccc2)n1)c1ccccc1CNc1noc(-c2ccccc2)n1 ?
Found: -7.75
